- TARGET OF ASSAY: Integrin alpha-5/beta-1 (Homo sapiens, UniProt P05556+P08648)
- Sequence (P05556 21-798 limits assumed): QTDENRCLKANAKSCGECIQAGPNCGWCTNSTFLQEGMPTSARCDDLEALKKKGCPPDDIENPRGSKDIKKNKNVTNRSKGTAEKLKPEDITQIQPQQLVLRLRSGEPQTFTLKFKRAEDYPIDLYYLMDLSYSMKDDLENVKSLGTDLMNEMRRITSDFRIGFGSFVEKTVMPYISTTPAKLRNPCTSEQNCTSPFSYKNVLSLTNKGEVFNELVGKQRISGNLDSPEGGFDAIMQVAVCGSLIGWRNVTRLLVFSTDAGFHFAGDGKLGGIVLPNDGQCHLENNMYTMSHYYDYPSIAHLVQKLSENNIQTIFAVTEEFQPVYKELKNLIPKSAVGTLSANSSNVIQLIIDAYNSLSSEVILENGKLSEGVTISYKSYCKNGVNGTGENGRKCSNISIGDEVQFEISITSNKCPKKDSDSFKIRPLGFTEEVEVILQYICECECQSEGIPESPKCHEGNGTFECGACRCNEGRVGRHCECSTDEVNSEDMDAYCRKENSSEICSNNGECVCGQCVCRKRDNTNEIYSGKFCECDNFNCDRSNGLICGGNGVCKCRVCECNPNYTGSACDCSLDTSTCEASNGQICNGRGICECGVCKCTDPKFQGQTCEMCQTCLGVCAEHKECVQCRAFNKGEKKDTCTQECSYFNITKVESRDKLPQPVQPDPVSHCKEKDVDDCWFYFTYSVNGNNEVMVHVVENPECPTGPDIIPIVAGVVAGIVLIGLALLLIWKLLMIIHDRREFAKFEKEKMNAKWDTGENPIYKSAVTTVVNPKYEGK
- Sequence (P08648 42-894 limits assumed): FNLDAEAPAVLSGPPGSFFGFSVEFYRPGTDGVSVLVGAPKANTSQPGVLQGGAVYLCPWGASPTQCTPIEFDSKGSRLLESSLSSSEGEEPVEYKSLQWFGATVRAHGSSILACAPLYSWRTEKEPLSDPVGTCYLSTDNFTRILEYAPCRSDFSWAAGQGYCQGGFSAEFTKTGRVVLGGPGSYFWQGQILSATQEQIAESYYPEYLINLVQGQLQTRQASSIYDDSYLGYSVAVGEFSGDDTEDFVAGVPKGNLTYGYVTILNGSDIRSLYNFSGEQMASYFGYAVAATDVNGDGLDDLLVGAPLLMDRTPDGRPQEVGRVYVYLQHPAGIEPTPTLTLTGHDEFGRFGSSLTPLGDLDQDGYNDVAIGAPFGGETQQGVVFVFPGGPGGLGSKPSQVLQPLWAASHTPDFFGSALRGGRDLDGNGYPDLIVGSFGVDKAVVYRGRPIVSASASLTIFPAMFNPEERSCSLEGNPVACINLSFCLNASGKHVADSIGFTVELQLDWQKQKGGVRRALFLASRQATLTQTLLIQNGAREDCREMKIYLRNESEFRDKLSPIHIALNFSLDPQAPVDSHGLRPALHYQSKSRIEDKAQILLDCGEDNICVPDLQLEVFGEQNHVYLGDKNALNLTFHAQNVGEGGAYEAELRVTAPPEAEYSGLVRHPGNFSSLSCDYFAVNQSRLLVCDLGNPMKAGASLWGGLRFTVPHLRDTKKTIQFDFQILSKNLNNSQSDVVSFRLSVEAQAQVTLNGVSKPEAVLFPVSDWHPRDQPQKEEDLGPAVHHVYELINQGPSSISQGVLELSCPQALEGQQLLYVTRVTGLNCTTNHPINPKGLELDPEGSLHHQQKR
- Sequence (P08648 895-1049 limits assumed): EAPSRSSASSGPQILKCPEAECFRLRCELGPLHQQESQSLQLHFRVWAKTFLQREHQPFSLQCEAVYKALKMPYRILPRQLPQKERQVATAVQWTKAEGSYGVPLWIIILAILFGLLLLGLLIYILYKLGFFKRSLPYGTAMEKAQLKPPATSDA
- TEST PROTOCOL: Inhibition of alpha5beta1 integrin in human SW480 cells assessed as inhibition of cell adhesion to fibronectin incubated for 60 mins by crystal violet staining based analysis
ENDPOINT LABEL: pIC50
One number for each entry, as −log10 of the molar value.

Recorded results for 3 compounds are shown here.
{"columns": ["SMILES RECORD", "TARGET OF ASSAY", "MEASURED VALUE"],
 "data": [
  ["CCCCCCCC(=O)Nc1cc(NC(=N)N)cc(C(=O)NCC(=O)NC[C@H](NC(=O)[C@@H]2CCCN2S(=O)(=O)c2ccccc2)C(=O)O)c1", "Integrin alpha-5/beta-1 (Homo sapiens, UniProt P05556+P08648)", 6.96],
  ["N=C(N)Nc1cc(NC(=O)CCCNC(=O)C23CC4CC(CC(C4)C2)C3)cc(C(=O)NCC(=O)NC[C@H](NC(=O)[C@@H]2CCCN2S(=O)(=O)c2ccccc2)C(=O)O)c1", "Integrin alpha-5/beta-1 (Homo sapiens, UniProt P05556+P08648)", 8.59],
  ["N=C(N)NCCCCCC(=O)NC[C@H](NC(=O)[C@@H]1CCCN1S(=O)(=O)c1ccccc1)C(=O)O", "Integrin alpha-5/beta-1 (Homo sapiens, UniProt P05556+P08648)", 6.08]
]}

I'm hoping you can list pIC50 for every compound here, please.
1. N=C(N)NCCCCCCNC(=O)NC[C@H](NC(=O)[C@@H]1CCCN1S(=O)(=O)c1ccccc1)C(=O)O
2. N=C(N)NCCCCNC(=O)NC[C@H](NC(=O)[C@@H]1CCCN1S(=O)(=O)c1ccccc1)C(=O)O
3. N=C(N)NCCCCCNC(=O)NC[C@H](NC(=O)[C@@H]1CCCN1S(=O)(=O)c1ccccc1)C(=O)O
4. N=C(N)Nc1cccc(C(=O)NNC(=O)NC[C@H](NC(=O)[C@@H]2CCCN2S(=O)(=O)c2ccccc2)C(=O)O)c1

Given back:
6.05
5.01
6.30
7.30
